# credit: ChEMBL document CHEMBL1151433

tested on: Moraxella catarrhalis; experiment: Antibacterial activity against Moraxella catarrhalis isolated from respiratory tract infected patients after 20 to 24 hrs by broth microdilution method; type: functional
Readings of MIC50 for the listed molecules
Unit mg/L implied. Number only.

>>> experimental_result("C[C@@H](O)[C@H]1C(=O)N2C(C(=O)O)=C([C@H]3CCCO3)S[C@H]12 [FAROPENEM]")
0.25

Query string: Input CO/N=C(\C(=O)N[C@@H]1C(=O)N2C(C(=O)O)=C(COC(N)=O)CS[C@H]12)c1ccco1 [CEFUROXIME] , output reported MIC50.
Result string: 1

----------
tested on: Streptococcus pneumoniae; assay: Antibacterial activity against penicillin-resistant Streptococcus pneumoniae ATCC 49619 isolated from respiratory tract infected patients assessed as susceptible isolates after 20 to 24 hrs by broth microdilution method; type: functional
ENDPOINT LABEL: Activity (%)
Unit % implied. Number only.

>>> experimental_result("C=CC1=C(C(=O)O)N2C(=O)[C@@H](NC(=O)/C(=N\\O)c3csc(N)n3)[C@H]2SC1 [CEFDINIR]")
0

Query string: Input CC[C@H]1OC(=O)[C@H](C)[C@@H](O[C@H]2C[C@@](C)(OC)[C@@H](O)[C@H](C)O2)[C@H](C)[C@@H](O[C@@H]2O[C@H](C)C[C@H](N(C)C)[C@H]2O)[C@](C)(O)C[C@@H](C)CN(C)[C@H](C)[C@@H](O)[C@]1(C)O [AZITHROMYCIN] , output reported Activity.
Result string: 19.4

Query string: Input C[C@H]1COc2c(N3CCN(C)CC3)c(F)cc3c(=O)c(C(=O)O)cn1c23.C[C@H]1COc2c(N3CCN(C)CC3)c(F)cc3c(=O)c(C(=O)O)cn1c23.O [LEVOFLOXACIN] , output reported Activity.
Result string: 98

Query string: Input CC[C@H]1OC(=O)[C@H](C)C(=O)[C@H](C)[C@@H](O[C@@H]2O[C@H](C)C[C@H](N(C)C)[C@H]2O)[C@](C)(OC)C[C@@H](C)C(=O)[C@H](C)[C@H]2N(CCCCn3cnc(-c4cccnc4)c3)C(=O)O[C@]12C [TELITHROMYCIN] , output reported Activity.
Result string: 97.2

Query string: Input CO/N=C(\C(=O)N[C@@H]1C(=O)N2C(C(=O)O)=C(COC(N)=O)CS[C@H]12)c1ccco1 [CEFUROXIME] , output reported Activity.
Result string: 0

Query string: Input C[C@@H](O)[C@H]1C(=O)N2C(C(=O)O)=C(S[C@@H]3CN[C@H](C(=O)N(C)C)C3)[C@H](C)[C@H]12 [MEROPENEM] , output reported Activity.
Result string: 4.5

----------
Readings of MIC50 for the listed molecules
system: Streptococcus pneumoniae; assay: Antibacterial activity against penicillin-intermediate Streptococcus pneumoniae ATCC 49619 isolated from respiratory tract infected patients after 20 to 24 hrs by broth microdilution method; type: functional
Unit mg/L implied. Number only.

Worked cases, answers included:
>>> experimental_result("C=CC1=C(C(=O)O)N2C(=O)[C@@H](NC(=O)/C(=N\\O)c3csc(N)n3)[C@H]2SC1")
0.25
>>> experimental_result("C[C@@H](O)[C@H]1C(=O)N2C(C(=O)O)=C(S[C@@H]3CN[C@H](C(=O)N(C)C)C3)[C@H](C)[C@H]12")
0.06
>>> experimental_result("C[C@H]1COc2c(N3CCN(C)CC3)c(F)cc3c(=O)c(C(=O)O)cn1c23.C[C@H]1COc2c(N3CCN(C)CC3)c(F)cc3c(=O)c(C(=O)O)cn1c23.O")
1
>>> experimental_result("C[C@@H](O)[C@H]1C(=O)N2C(C(=O)O)=C([C@H]3CCCO3)S[C@H]12")
0.06

Query string: Input CC[C@H]1OC(=O)[C@H](C)[C@@H](O[C@H]2C[C@@](C)(OC)[C@@H](O)[C@H](C)O2)[C@H](C)[C@@H](O[C@@H]2O[C@H](C)C[C@H](N(C)C)[C@H]2O)[C@](C)(O)C[C@@H](C)CN(C)[C@H](C)[C@@H](O)[C@]1(C)O , output reported MIC50.
Result string: 4

----------
tested on: Haemophilus influenzae; assay: Antibacterial activity against Haemophilus influenzae […] isolated from respiratory tract infected patients after 20 to 24 hrs by broth microdilution method; type: functional; settings: ATCC 49247
ENDPOINT LABEL: MIC90 (µg/mL)
Unit µg/mL implied. Number only.

Worked cases, answers included:
>>> experimental_result("CC[C@H]1OC(=O)[C@H](C)C(=O)[C@H](C)[C@@H](O[C@@H]2O[C@H](C)C[C@H](N(C)C)[C@H]2O)[C@](C)(OC)C[C@@H](C)C(=O)[C@H](C)[C@H]2N(CCCCn3cnc(-c4cccnc4)c3)C(=O)O[C@]12C")
4
>>> experimental_result("C[C@@H](O)[C@H]1C(=O)N2C(C(=O)O)=C(S[C@@H]3CN[C@H](C(=O)N(C)C)C3)[C@H](C)[C@H]12")
0.12
>>> experimental_result("CO/N=C(\\C(=O)N[C@@H]1C(=O)N2C(C(=O)O)=C(COC(N)=O)CS[C@H]12)c1ccco1")
2

Proceeding to the next compound to report its MIC90.
Query string: Recall the reported MIC90 of CC[C@H]1OC(=O)[C@H](C)[C@@H](O[C@H]2C[C@@](C)(OC)[C@@H](O)[C@H](C)O2)[C@H](C)[C@@H](O[C@@H]2O[C@H](C)C[C@H](N(C)C)[C@H]2O)[C@](C)(O)C[C@@H](C)CN(C)[C@H](C)[C@@H](O)[C@]1(C)O when tested on Haemophilus influenzae.
Result string: 2

----------
system: Streptococcus pneumoniae; assay: Antibacterial activity against Streptococcus pneumoniae ATCC 49619 isolated from respiratory tract infected patients more than 65 years of age after 20 to 24 hrs by broth microdilution method; format: functional
ENDPOINT LABEL: MIC90

Worked cases, answers included:
>>> experimental_result("CC[C@H]1OC(=O)[C@H](C)[C@@H](O[C@H]2C[C@@](C)(OC)[C@@H](O)[C@H](C)O2)[C@H](C)[C@@H](O[C@@H]2O[C@H](C)C[C@H](N(C)C)[C@H]2O)[C@](C)(O)C[C@@H](C)CN(C)[C@H](C)[C@@H](O)[C@]1(C)O")
"> 16 µg/mL"
>>> experimental_result("C=CC1=C(C(=O)O)N2C(=O)[C@@H](NC(=O)/C(=N\\O)c3csc(N)n3)[C@H]2SC1")
"4 µg/mL"

Query string: Input C[C@H]1COc2c(N3CCN(C)CC3)c(F)cc3c(=O)c(C(=O)O)cn1c23.C[C@H]1COc2c(N3CCN(C)CC3)c(F)cc3c(=O)c(C(=O)O)cn1c23.O , output reported MIC90.
Result string: 1 µg/mL

Query string: Input C[C@@H](O)[C@H]1C(=O)N2C(C(=O)O)=C([C@H]3CCCO3)S[C@H]12 , output reported MIC90.
Result string: 0.5 µg/mL

----------
Readings of MIC90 for the listed molecules
test system: Haemophilus influenzae; assay: Antibacterial activity against beta lactamase-negative Haemophilus influenzae […] isolated from respiratory tract infected patients after 20 to 24 hrs by broth microdilution method; assay type: functional; settings: ATCC 49247
Unit µg/mL implied. Number only.

Query string: Input CO/N=C(\C(=O)N[C@@H]1C(=O)N2C(C(=O)O)=C(COC(N)=O)CS[C@H]12)c1ccco1 [CEFUROXIME] , output reported MIC90.
Result string: 2

Query string: Input CC[C@H]1OC(=O)[C@H](C)[C@@H](O[C@H]2C[C@@](C)(OC)[C@@H](O)[C@H](C)O2)[C@H](C)[C@@H](O[C@@H]2O[C@H](C)C[C@H](N(C)C)[C@H]2O)[C@](C)(O)C[C@@H](C)CN(C)[C@H](C)[C@@H](O)[C@]1(C)O [AZITHROMYCIN] , output reported MIC90.
Result string: 2

Query string: Input CC[C@H]1OC(=O)[C@H](C)C(=O)[C@H](C)[C@@H](O[C@@H]2O[C@H](C)C[C@H](N(C)C)[C@H]2O)[C@](C)(OC)C[C@@H](C)C(=O)[C@H](C)[C@H]2N(CCCCn3cnc(-c4cccnc4)c3)C(=O)O[C@]12C [TELITHROMYCIN] , output reported MIC90.
Result string: 4

Query string: Input C[C@@H](O)[C@H]1C(=O)N2C(C(=O)O)=C(S[C@@H]3CN[C@H](C(=O)N(C)C)C3)[C@H](C)[C@H]12 [MEROPENEM] , output reported MIC90.
Result string: 0.12

----------
Readings of MIC90 for the listed compounds
system: Streptococcus pneumoniae; assay: Antibacterial activity against penicillin-intermediate Streptococcus pneumoniae ATCC 49619 isolated from respiratory tract infected patients after 20 to 24 hrs by broth microdilution method; assay type: functional
Unit mg/L implied. Number only.

Worked cases, answers included:
>>> experimental_result("CC[C@H]1OC(=O)[C@H](C)C(=O)[C@H](C)[C@@H](O[C@@H]2O[C@H](C)C[C@H](N(C)C)[C@H]2O)[C@](C)(OC)C[C@@H](C)C(=O)[C@H](C)[C@H]2N(CCCCn3cnc(-c4cccnc4)c3)C(=O)O[C@]12C [TELITHROMYCIN]")
0.5
>>> experimental_result("C[C@H]1COc2c(N3CCN(C)CC3)c(F)cc3c(=O)c(C(=O)O)cn1c23.C[C@H]1COc2c(N3CCN(C)CC3)c(F)cc3c(=O)c(C(=O)O)cn1c23.O [LEVOFLOXACIN]")
1
>>> experimental_result("C[C@@H](O)[C@H]1C(=O)N2C(C(=O)O)=C([C@H]3CCCO3)S[C@H]12 [FAROPENEM]")
0.25
>>> experimental_result("C=CC1=C(C(=O)O)N2C(=O)[C@@H](NC(=O)/C(=N\\O)c3csc(N)n3)[C@H]2SC1 [CEFDINIR]")
2
>>> experimental_result("C[C@@H](O)[C@H]1C(=O)N2C(C(=O)O)=C(S[C@@H]3CN[C@H](C(=O)N(C)C)C3)[C@H](C)[C@H]12 [MEROPENEM]")
0.25

Proceeding to the next compound to report its MIC90.
Query string: Input CO/N=C(\C(=O)N[C@@H]1C(=O)N2C(C(=O)O)=C(COC(N)=O)CS[C@H]12)c1ccco1 [CEFUROXIME] , output reported MIC90.
Result string: 4
